- protocol.notes: ip-implanted L1210 leukemia in mice
- condition.details: mouse, in vivo, ip
Structures can show the parent of a compound that is named as a salt.
parameter.measured: log10 MTD (log10 of the value in mg/kg)
In our notation, the value equals log10 of MTD in mg/kg.

Please review the entries below; each comes with its answer.
compound | log10 MTD
CC[C@@]1(O)C(=O)OCc2c1cc1n(c2=O)Cc2cc3c(CN4CCOCC4)cccc3nc2-1 [18S, (20S) 9-Morpholinomethylcamptothecin] | 1.11
CC[C@@]1(O)C(=O)OCc2c1cc1n(c2=O)Cc2cc3cc(CN)ccc3nc2-1 [20S, Acetate salt] | 1.96

query: Please look at this compound and report its log10 MTD: CC[C@@]1(O)C(=O)OCc2c1cc1n(c2=O)Cc2cc3c(CNC4CC4)c(O)ccc3nc2-1 [8S]
result: 1.40

query: Provide log10 MTD value for the following compound: CC[C@@]1(O)C(=O)OCc2c1cc1n(c2=O)Cc2cc3c(CNC4CCCCC4)c(O)ccc3nc2-1 [11S]
result: 1.40

query: Return the recorded log10 MTD value; entry: CC[C@@]1(O)C(=O)OCc2c1cc1n(c2=O)Cc2cc3c(CN(C)C)cccc3nc2-1 [15S, (20S) 9-Dimethylaminomethylcamptothecin]
result: 1.18

query: Identify the reported log10 MTD for the following entry. CC[C@@]1(O)C(=O)OCc2c1cc1n(c2=O)Cc2cc3c(CN4CCN(C)CC4)c(O)ccc3nc2-1 [6S]
result: 1.88

query: Answer with the recorded log10 MTD for the compound listed here: CCOCc1c(O)ccc2nc3c(cc12)Cn1c-3cc2c(c1=O)COC(=O)[C@]2(O)CC [10S]
result: 1.40

query: Hello, please tell me recorded log10 MTD for this one: CC[C@@]1(O)C(=O)OCc2c1cc1n(c2=O)Cc2cc3c(CN(C)c4ccccc4)c(O)ccc3nc2-1 [9S]
result: 1.62

query: Tell me measured log10 MTD for CC[C@@]1(O)C(=O)OCc2c1cc1n(c2=O)Cc2cc3c(CC#N)c(O)ccc3nc2-1 [17S] please.
result: 1.08

query: Tell us which log10 MTD value is on record for CC[C@@]1(O)C(=O)OCc2c1cc1n(c2=O)Cc2cc3c(COCCN(C)C)c(O)ccc3nc2-1 [13S, Hydrochloride Salt]
result: 1.62

query: Give the measured log10 MTD for CC[C@@]1(O)C(=O)OCc2c1cc1n(c2=O)Cc2cc3cc(O)ccc3nc2-1 [10-Hydroxycamptothecin, (20 S) 10-Hydroxycamptothecin, reference compound]
result: 0.95

query: # return recorded log10 MTD for input CC[C@@]1(O)C(=O)OCc2c1cc1n(c2=O)Cc2cc3cc(C#N)ccc3nc2-1 [16S, 10-Cyanocamptothecin]
result: 0.48

query: Please indicate log10 MTD recorded for CC[C@@]1(O)C(=O)OCc2c1cc1n(c2=O)Cc2cc3c(CCN)c(O)ccc3nc2-1 [22S, Acetate Salt]
result: 2.00

----------
- System: ip L1210 leukemia
- protocol.notes: ip-implanted L1210 leukemia in mice;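 also: each mouse received 10^6 L1210 cells intraperitoneally, with drug treatment also given by the i.p. route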
- condition.details: ip L1210 (10^6 cells); drug i.p. Days 1 and 5 at maximally tolerated dose
Counter-ions that a name gives are not always drawn.
parameter.measured: In Vivo Antitumor Activity ILS (increase in lifespan) (%)
Numeric answer only, unit % assumed.

compound | assay.value
CC[C@@]1(O)C(=O)OCc2c1cc1n(c2=O)Cc2cc3c(CN(C)C)cccc3nc2-1 [15S, (20S) 9-Dimethylaminomethylcamptothecin] | 88

query: Please indicate In Vivo Antitumor Activity ILS (increase in lifespan) recorded for CC[C@@]1(O)C(=O)OCc2c1cc1n(c2=O)Cc2cc3c(CCN)c(O)ccc3nc2-1 [22S, Acetate Salt]
result: 75

query: Read the entry CC[C@@]1(O)C(=O)OCc2c1cc1n(c2=O)Cc2cc3c(CSCCN(C)C)c(O)ccc3nc2-1 [14S, Hydrochloride Salt] and write its reported In Vivo Antitumor Activity ILS (increase in lifespan).
result: 112

query: Give the value of In Vivo Antitumor Activity ILS (increase in lifespan) reported for the following: CC[C@@]1(O)C(=O)OCc2c1cc1n(c2=O)Cc2cc3c(C=O)c(O)ccc3nc2-1 [2S, (20 S) 9-Formyl-10-hydroxycamptothecin]
result: 75

query: Identify In Vivo Antitumor Activity ILS (increase in lifespan) associated with the compound CC[C@@]1(O)C(=O)OCc2c1cc1n(c2=O)Cc2cc3c(CN4CCOCC4)c(O)ccc3nc2-1 [5S]
result: 83

query: Item CC[C@@]1(O)C(=O)OCc2c1cc1n(c2=O)Cc2cc3c(CNCCO)c(O)ccc3nc2-1 [4S, Acetate Salt] : provide In Vivo Antitumor Activity ILS (increase in lifespan)
result: 75
